target: human S1P1 (Homo sapiens, UniProt P21453); construct: CHO-K1 Gαqi5 cells expression full-length human S1P1; experiment: GTPγS binding assay (scintillation proximity assay, S1P1 membranes); details: membranes from CHO-K1 Gαqi5 cells expressing full-length human S1P1; GTPγ35S; 60 minutes incubation
Sequence (P21453 whole entry): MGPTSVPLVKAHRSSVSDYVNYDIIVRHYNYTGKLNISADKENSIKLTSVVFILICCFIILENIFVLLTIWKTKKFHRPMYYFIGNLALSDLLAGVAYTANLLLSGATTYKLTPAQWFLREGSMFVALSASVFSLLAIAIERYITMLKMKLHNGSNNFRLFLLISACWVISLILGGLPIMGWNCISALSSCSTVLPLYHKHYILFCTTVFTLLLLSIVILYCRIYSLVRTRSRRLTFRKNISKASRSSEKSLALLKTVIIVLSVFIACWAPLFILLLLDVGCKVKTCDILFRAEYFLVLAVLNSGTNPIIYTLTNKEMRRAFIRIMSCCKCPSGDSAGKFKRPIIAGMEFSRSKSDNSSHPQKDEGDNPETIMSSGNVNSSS
pEC50: −log10 of the molar value.
Readout: pEC50

[[record]]
smiles_repr = "O=C1CC[C@@H](Oc2cc(Cl)c(-c3noc(-c4cn5cc(C(F)(F)F)cc(Cl)c5n4)n3)cc2Cl)CN1"
result = "> 6.00"

